Molecular target: acetylcholine muscarinic M1 receptor (Homo sapiens)
Construct: also called CHOK1/hM1)
Sequence (P11229 1-460): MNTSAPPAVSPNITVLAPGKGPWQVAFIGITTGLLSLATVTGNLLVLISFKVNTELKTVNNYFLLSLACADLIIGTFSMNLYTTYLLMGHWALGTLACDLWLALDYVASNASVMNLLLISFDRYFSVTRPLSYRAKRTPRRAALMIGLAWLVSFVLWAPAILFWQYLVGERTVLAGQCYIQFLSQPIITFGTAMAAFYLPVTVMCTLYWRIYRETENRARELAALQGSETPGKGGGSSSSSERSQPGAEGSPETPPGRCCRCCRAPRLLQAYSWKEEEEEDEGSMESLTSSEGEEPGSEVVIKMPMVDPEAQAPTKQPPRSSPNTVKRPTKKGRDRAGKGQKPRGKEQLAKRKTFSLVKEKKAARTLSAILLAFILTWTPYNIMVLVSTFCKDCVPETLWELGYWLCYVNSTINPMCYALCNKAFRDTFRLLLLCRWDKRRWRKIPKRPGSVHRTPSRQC
Test: muscarinic FLIPR assay: potentiation of acetylcholine (EC20)-stimulated intracellular Ca2+ in CHOnfat/hM1 cells
Details: 4 min preincubation, then EC20 acetylcholine (3 nM final), read-out: IP Value (inflection point)
pEC50: −log10 of the molar value.
property_measured: pEC50

Cc1cccc(-n2nc3c4cccnc4n(Cc4ccc(Cl)nc4)nc-3c2=O)c1C [Example 4] ... 6.44
O=c1c2nn(Cc3ccc(-n4cccn4)cc3)c3ncccc3c-2nn1C1CCCOC1 (racemic) [Example 10] ... 6.36
O=c1c2nn(Cc3ccc(-n4cccn4)cc3)c3ccsc3c-2nn1C1CCCOC1 (racemic) [Example 37] ... 7.02

A: Cc1ccc(-c2ccc(Cn3nc4c(=O)n([C@@H]5CCCC[C@H]5O)nc-4c4cccnc43)cn2)cn1 (racemic) [Example 8]
B: O=c1c2nn(Cc3ccc(-c4cscn4)cc3)c3ncccc3c-2nn1C1CCCOC1 (racemic) [Example 31]
Query: Could you check which of A and B has a smaller value for pEC50? Your choice should be expressed through its label.
Response: B

1: Cc1ccc(-c2ccc(Cn3nc4c(=O)n(-c5cccc(C)c5C)nc-4c4cccnc43)cn2)cn1 [Example 5]
2: Cc1ccc(-c2ccc(Cn3nc4c(=O)n(C5CCCOC5)nc-4c4sccc43)cc2)cn1 (racemic) [Example 38]
3: Cc1cncc(-c2ccc(Cn3nc4c(=O)n(C5CCCOC5)nc-4c4cccnc43)cc2)c1 (stereo not drawn) [Example 13]
4: Cc1ccc(-c2ccc(Cn3nc4c(=O)n(C5CCCOC5)nc-4c4cccnc43)cn2)cn1 (racemic) [Example 9]
Query: Output the entries ranked by pEC50 from maximum down to minimum. Present the labels in the sequence the task asks for.
Response: 1, 2, 3, 4
(1: 6.96, 2: 6.74, 3: 6.24, 4: 5.94)

* * *

Target: acetylcholine muscarinic M1 receptor (Homo sapiens)
Construct: also called CHOK1/hM1)
Assay: muscarinic FLIPR assay: potentiation of acetylcholine (EC20)-stimulated intracellular Ca2+ in CHOnfat/hM1 cells
Settings: 4 min preincubation, then EC20 acetylcholine (3 nM final), read-out: IP Value (inflection point)
pEC50: −log10 of the molar value.
property_measured: pEC50

I: Cc1ccc(-c2ccc(Cn3nc4c(=O)n(C5CCCOC5)nc-4c4cccnc43)cc2)cn1 (racemic)
II: Cc1ccc(-c2ccc(Cn3nc4c(=O)n(-c5cccc(C)c5F)nc-4c4cccnc43)cn2)cn1
III: Cc1cc(-c2ccc(Cn3nc4c(=O)n(C5CCCOC5)nc-4c4sccc43)cc2)ccn1 (racemic)
Query: List these items ordered by pEC50, big to small. Your reply should list the labels following the order given in the request.
Response: II, III, I
(II: 7.44, III: 6.92, I: 6.43)

* * *

Target: acetylcholine muscarinic M1 receptor (Homo sapiens)
Construct: also called CHOK1/hM1)
Experiment: muscarinic FLIPR assay: potentiation of acetylcholine (EC20)-stimulated intracellular Ca2+ in CHOnfat/hM1 cells
Conditions: 4 min preincubation, then EC20 acetylcholine (3 nM final), read-out: IP Value (inflection point)
property_measured: EC50 (nM)

P: O=c1c2nn(Cc3ccc(-c4ccc(O)nc4)cc3)c3ncccc3c-2nn1C1CCCOC1 (racemic)
Q: Cc1ccccc1-n1nc2c3sccc3n(Cc3ccc(-n4cccn4)cc3)nc-2c1=O
R: Cc1c(-n2nc3c4sccc4n(Cc4ccc(-n5cccn5)cc4)nc-3c2=O)ccnc1F
Query: Sort low-to-high on EC50, please. Write out the labels following the order that was asked for.
Response: R, Q, P
(R: 33 nM, Q: 48 nM, P: 1690 nM)
